System under test: UniProt Q9Y5N5
Sequence (Q9Y5N5 whole entry): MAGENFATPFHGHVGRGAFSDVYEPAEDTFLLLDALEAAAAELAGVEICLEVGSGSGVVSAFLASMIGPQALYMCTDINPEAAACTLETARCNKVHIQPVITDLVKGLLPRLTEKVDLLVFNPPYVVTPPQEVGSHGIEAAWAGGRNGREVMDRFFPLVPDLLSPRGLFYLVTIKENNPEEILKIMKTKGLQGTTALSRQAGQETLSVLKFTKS
Sequence (Q9UI30 1-120 isoform Q9UI30-2 partner): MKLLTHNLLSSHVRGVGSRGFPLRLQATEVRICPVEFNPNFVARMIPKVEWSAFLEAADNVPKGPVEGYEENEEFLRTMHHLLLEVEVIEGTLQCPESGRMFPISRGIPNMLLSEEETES
Method notes: KMT9 thermal shift assay (SyproOrange)
Format: binding
Experimental parameters: ΔTm; 500 µM compound, 2 μM KMT9, 5X SO; read-out: Thermal shift
# reported ΔTm at 500 µM; entries follow

Here's what some known entries look like.
- Structure smiles: "CNc1ncnc2c1ccn2[C@@H]1C[C@H](CS(=O)(=O)CCCNCCc2ccccc2)[C@@H](O)[C@H]1O"
  System under test: "UniProt Q9Y5N5"
  ΔTm at 500 µM: "≤ 10 °C"
- Structure smiles: "Nc1ncnc2c1ccn2[C@@H]1C[C@H](c2ccc3ccccc3c2)[C@@H](O)[C@H]1O"
  System under test: "UniProt Q9Y5N5"
  ΔTm at 500 µM: "≤ 10 °C"
- Structure smiles: "Nc1ncnc2c1c(-c1nc(Cc3ccccc3)cs1)cn2[C@@H]1C[C@H](C2=CCCNC2)[C@@H](O)[C@H]1O"
  System under test: "UniProt Q9Y5N5"
  ΔTm at 500 µM: "15 to 20 °C"

Recorded result, `CCc1cn([C@@H]2C[C@H](CNCCCNCCc3ccccc3)[C@@H](O)[C@H]2O)c2ncncc12` , ΔTm at 500 µM: ≤ 10 °C

Recorded result, `CNc1ncnc2c1ccn2[C@@H]1C[C@H](CN(CCCNCCc2ccccc2)c2cnn(C)c2)[C@@H](O)[C@H]1O` , ΔTm at 500 µM: ≤ 10 °C

Recorded result, `CNc1ncnc2c1ccn2[C@@H]1C[C@H](CN2CCCC23CCNCC3)[C@@H](O)[C@H]1O` , ΔTm at 500 µM: ≤ 10 °C

Recorded result, `Nc1ncnc2c1c(I)cn2[C@@H]1C[C@H](CNCCCNCCc2ccccc2)[C@@H](O)[C@H]1O` , ΔTm at 500 µM: 15 to 20 °C
